Source: patent EP1433789A1

Tested on: K562
Assay: Hoechst 33342 nuclear staining (Table 3)
Type: cell-based, human
Set-up: key: 0 relating to no activity; 1 relating to weak activity comprising less than 50% of the cells; score 2 relating to strong activity comprising more than 50% of the cells
Conditions: K562, 24h, conc 10 (µM)

smiles-str	target-or-test-system	Hoechst 33342 nuclear staining
CC1(C)Cc2ccccc2-c2c(C=O)c3nc4ccccc4nc3n21	K562	0

---

Test system: KB
Assay: Hoechst 33342 nuclear staining (Table 3)
Format: cell-based, human
Set-up: key: 0 relating to no activity; 1 relating to weak activity comprising less than 50% of the cells; score 2 relating to strong activity comprising more than 50% of the cells
Settings: 48h, conc 3 (µM)

smiles-str	Hoechst 33342 nuclear staining
CC1(C)Cc2ccccc2-c2cc3nc4ccccc4nc3n21	0

---

Item-by-item account of Hoechst 33342 nuclear staining
Tested on: HeLa
Assay: Hoechst 33342 nuclear staining (Table 3)
Assay type: cell-based, human
Design: key: 0 relating to no activity; 1 relating to weak activity comprising less than 50% of the cells; score 2 relating to strong activity comprising more than 50% of the cells
Details: 48h, conc 3 (µM)
reported-metric: Hoechst 33342 nuclear staining

molecule	reported-metric	value-observed
CC1(C)Cc2ccccc2-c2c(C=O)c3nc4ccccc4nc3n21	Hoechst 33342 nuclear staining	0
CC1Cc2ccccc2-c2c(Cl)c3nc4ccccc4nc3n21 (stereo not drawn)	Hoechst 33342 nuclear staining	0

---

Tested on: HeLa
Experiment: Hoechst 33342 nuclear staining (Table 3)
Assay type: cell-based, human
Design: key: 0 relating to no activity; 1 relating to weak activity comprising less than 50% of the cells; score 2 relating to strong activity comprising more than 50% of the cells
Conditions: 48h, conc 0.3 (µM)
reported-metric: Hoechst 33342 nuclear staining

molecule	reported-metric	value-observed
CC1(C)Cc2ccccc2-c2c(C=O)c3nc4ccccc4nc3n21	Hoechst 33342 nuclear staining	0
COc1cc2c(cc1OC)-c1c(Br)c3nc4ccccc4nc3n1C(C)C2 (centres unmarked)	Hoechst 33342 nuclear staining	0
COc1cc2c(cc1OC)-c1c(Cl)c3nc4ccccc4nc3n1C(C)C2 (centres unmarked)	Hoechst 33342 nuclear staining	0
CCC1Cc2cc(OC)c(OC)cc2-c2cc3nc4ccccc4nc3n21 (centres unmarked)	Hoechst 33342 nuclear staining	0
CC1(C)Cc2ccccc2-c2c(Br)c3nc4ccccc4nc3n21	Hoechst 33342 nuclear staining	0

---

Test system: Ramos
Experiment: Hoechst 33342 nuclear staining (Table 3)
Type: cell-based, human
Parameters: key: 0 relating to no activity; 1 relating to weak activity comprising less than 50% of the cells; score 2 relating to strong activity comprising more than 50% of the cells
Settings: 24h, conc 10 (µM)
reported-metric: Hoechst 33342 nuclear staining

smiles-str	reported-metric	value-observed
CC1(C)Cc2ccccc2-c2c(C=O)c3nc4ccccc4nc3n21	Hoechst 33342 nuclear staining	0

---

Test system: Jurkat
Test: Hoechst 33342 nuclear staining (Table 3)
Type: cell-based, human
Design: key: 0 relating to no activity; 1 relating to weak activity comprising less than 50% of the cells; score 2 relating to strong activity comprising more than 50% of the cells
Conditions: 24h, conc 1 (µM)

molecule	Hoechst 33342 nuclear staining
CC1(C)Cc2ccccc2-c2c(C=O)c3nc4ccccc4nc3n21	0
CC1Cc2ccccc2-c2c(Cl)c3nc4ccccc4nc3n21 (stereo not drawn)	0
CCC1Cc2cc(OC)c(OC)cc2-c2cc3nc4ccccc4nc3n21 (stereo not drawn)	0
COc1cc2c(cc1OC)-c1c(Cl)c3nc4ccccc4nc3n1C(C)C2 (stereo not drawn)	0
CC1(C)Cc2ccccc2-c2c(C(=O)C(F)(F)F)c3nc4ccccc4nc3n21	0
